assay procedure: Pharmacokinetic determination in mice (IV and PO, plasma, LCMS/MS)
Format: in vivo, Balb/c mice
run conditions: male, Balb/c, mouse, in vivo, iv, 1 mg/kg
observed property: AUC

>>> assay_value("C#Cc1c(F)ccc2cc(O)cc(-c3ncc4c(N5CC6CCC(C5)N6)nc(OC[C@@]56CCCN5C[C@H](F)C6)nc4c3F)c12 [MRTX-1133, reference compound]")
"305 ng·h/mL"
>>> assay_value("C#Cc1c(F)ccc2cc(O)cc(-c3nc4c5c(nc(OCC6(CN7CCC(=NOC)CC7)CC6)nc5c3F)N3CC5CCC(N5)C3CO4)c12 (centres unmarked)")
"253 ng·h/mL"

---

assay procedure: Pharmacokinetic determination in rats (IV and PO, plasma, LCMS/MS)
Format: in vivo, SD rats
run conditions: rat, in vivo; PO, 30 mg/kg, male SD rats, overnight fasting, plasma; read-out: T1/2 (converted)
half-life by entry:
observed property: half-life (h)

>>> assay_value("C#Cc1c(F)ccc2cc(O)cc(-c3nc4c5c(nc(OCC6(CN7CCCC(=C(F)F)CC7)CC6)nc5c3F)N3C[C@H]5CC[C@H](N5)[C@H]3[C@H](CC)O4)c12 [Example 140]")
11
>>> assay_value("C#Cc1c(F)ccc2cc(O)cc(-c3nc4c5c(nc(OCC6(CN7CCC(=NOC)CC7)CC6)nc5c3F)N3C[C@H]5CC[C@H](N5)[C@H]3[C@H](C)O4)c12 [Example 35-1]")
3.4
>>> assay_value("C#Cc1c(F)ccc2cc(O)cc(-c3nc4c5c(nc(OCC6(CN7CCC(=CF)CC7)CC6)nc5c3F)N3C[C@H]5CC[C@H](N5)[C@H]3[C@H](C)O4)c12 [Example 129]")
9.6

---

Reported Remaining rate (%) 60 min is given for each of the following compounds.
assay procedure: Plasma stability test, mouse plasma;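 further: test compound quantified by LC-MS using positive-mode electrospray ionization and MRM scanning, with an internal standard added in acetonitrile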
Assay type: in vitro ADME
run conditions: Mouse plasma, 37°C, 60 min
observed property: Remaining rate (%) 60 min

>>> assay_value("C#Cc1c(F)ccc2cc(O)cc(-c3nc4c5c(nc(OCC6(CN7CCC(=C(F)F)CC7)CC6)nc5c3F)N3C[C@H]5CC[C@H](N5)[C@H]3CO4)c12")
"96.21%"
>>> assay_value("[2H]C([2H])(Oc1nc2c3c(nc(-c4cc(O)cc5ccc(F)c(C#C)c45)c(F)c3n1)O[C@@H](C)[C@@H]1[C@@H]3CC[C@H](CN21)N3)C1(C([2H])([2H])N2CCC(=CF)CC2)CC1")
"81.82%"
>>> assay_value("C#Cc1c(F)ccc2cc(O)cc(-c3nc4c5c(nc(OCC6(CN7CCC(=CF)CC7)CC6)nc5c3F)N3C[C@H]5CC[C@H](N5)[C@H]3[C@H](C)O4)c12")
"104.94%"
>>> assay_value("[2H]C([2H])([2H])[C@@H]1Oc2nc(-c3cc(O)cc4ccc(F)c(C#C)c34)c(F)c3nc(OCC4(CN5CCC(=CF)CC5)CC4)nc(c23)N2C[C@H]3CC[C@H](N3)[C@@H]12")
"101.65%"
>>> assay_value("C#Cc1c(F)ccc2cc(O)cc(-c3nc4c5c(nc(OCC6(CN7CCC(=C(F)F)CC7)CC6)nc5c3F)N3C[C@H]5CC[C@H](N5)[C@H]3[C@H](C)O4)c12")
"91.51%"

---

The following molecules are listed with their measured F values.
assay procedure: Pharmacokinetic determination in mice (IV and PO, plasma, LCMS/MS)
Format: in vivo, Balb/c mice
run conditions: PO 30 mg/kg vs IV 1 mg/kg, male Balb/c mice
Excerpt: • 1. Study objective: Balb/c mice were used as test animals to study the pharmacokinetic behavior of the compounds in mice (plasma) after oral administration. • 2. […]
observed property: F

>>> assay_value("[2H]C([2H])([2H])[C@@H]1Oc2nc(-c3cc(N)cc(Cl)c3C(F)(F)F)c(F)c3nc(OCC4(CN5CCC(=NOC)CC5)CC4)nc(c23)N2C[C@H]3CC[C@H](N3)[C@@H]12 [Example 339]")
"13.8%"
>>> assay_value("C#Cc1c(F)ccc2cc(O)cc(-c3nc4c5c(nc(OCC6(CN7CCC(=C(F)F)CC7)CC6)nc5c3F)N3C[C@H]5CC[C@H](N5)[C@H]3[C@H](CC)O4)c12 [Example 124]")
"23%"
>>> assay_value("C#Cc1c(F)ccc2cc(O)cc(-c3nc4c5c(nc(OCC6(CN7CCC(=C(F)F)CC7)CC6)nc5c3F)N3C[C@H]5CC[C@H](N5)[C@H]3CO4)c12 [Example 1-1]")
"12.1%"
>>> assay_value("C#Cc1c(F)ccc2cc(O)cc(-c3nc4c5c(nc(OCC6(CN7CCC(=C(F)F)CC7)CC6)nc5c3F)N3C[C@H]5CC[C@H](N5)[C@H]3[C@H](C)O4)c12 [Example 19-1]")
"11.2%"

---

assay procedure: Pharmacokinetic determination in mice (IV and PO, plasma, LCMS/MS)
Type: in vivo, Balb/c mice
run conditions: mouse, in vivo; Balb/c mice, intravenously (IV), 1 mg/kg, plasma; read-out: CL
Listed next: entries and their corresponding clearance.
observed property: clearance (mL/min/kg)

>>> assay_value("[2H]C([2H])([2H])[C@@H]1Oc2nc(-c3cc(N)cc(Cl)c3C(F)(F)F)c(F)c3nc(OCC4(CN5CCC(=NOC)CC5)CC4)nc(c23)N2C[C@H]3CC[C@H](N3)[C@@H]12")
125
>>> assay_value("C#Cc1c(F)ccc2cc(O)cc(-c3nc4c5c(nc(OCC6(CN7CCC(=NOC)CC7)CC6)nc5c3F)N3C[C@H]5CC[C@H](N5)[C@H]3[C@H](C)O4)c12")
116
>>> assay_value("C#Cc1c(F)ccc2cc(O)cc(-c3nc4c5c(nc(OCC6(CN7CCC(=C(F)F)CC7)CC6)nc5c3F)N3C[C@H]5CC[C@H](N5)[C@H]3[C@H](C)O4)c12")
35
>>> assay_value("C#Cc1c(F)ccc2cc(O)cc(-c3nc4c5c(nc(OCC6(CN7CCC(=C(F)F)CC7)CC6)nc5c3F)N3C[C@H]5CC[C@H](N5)[C@H]3[C@H](CC)O4)c12")
44.6
>>> assay_value("C#Cc1c(F)ccc2cc(O)cc(-c3nc4c5c(nc(OCC6(CN7CCC(=C(F)F)CC7)CC6)nc5c3F)N3C[C@H]5CC[C@H](N5)[C@H]3CO4)c12")
28.6

---

Quick reference for Tmax among some compounds
assay procedure: Pharmacokinetic determination in mice (IV and PO, plasma, LCMS/MS)
Format: in vivo, Balb/c mice
run conditions: mouse, in vivo; PO, 30 mg/kg, male Balb/c mice, overnight fasting, plasma; read-out: Tmax
observed property: Tmax (h)

>>> assay_value("C#Cc1c(F)ccc2cc(O)cc(-c3nc4c5c(nc(OCC6(CN7CCC(=CF)C7)CC6)nc5c3F)N3C[C@H]5CC[C@H](N5)[C@H]3[C@H](C)O4)c12 [Example 131]")
1
>>> assay_value("C#Cc1c(F)ccc2cc(O)cc(-c3nc4c5c(nc(OCC6(CN7CCC(=C(F)F)CC7)CC6)nc5c3F)N3C[C@H]5CC[C@H](N5)[C@H]3[C@H](C)O4)c12 [Example 19-1]")
1
>>> assay_value("C#Cc1c(F)ccc2cc(O)cc(-c3nc4c5c(nc(OCC6(CN7CCC(=C(F)F)CC7)CC6)nc5c3F)N3C[C@H]5CC[C@H](N5)[C@H]3[C@H](CC)O4)c12 [Example 124]")
1

---

The entries below come with measured IC50 values attached.
System: GP2D
assay procedure: Inhibition of proliferation of KRAS G12D mutant tumor cell line GP2D (CellTiter-Glo)
run conditions: Homo sapiens, GP2d, 72 h, read-out: GP2D IC50
observed property: IC50 (pM)

>>> assay_value("C#Cc1c(F)ccc2cc(O)cc(-c3nc4c5c(nc(OCC6(CN7CC8CCC7CC8=NOC)CC6)nc5c3F)N3C[C@H]5CC[C@H](N5)[C@H]3[C@H](C)O4)c12 [Example 345]")
180
>>> assay_value("C#Cc1c(F)ccc2cc(O)cc(-c3nc4c5c(nc(OCC6(CN7CCC(=NOC)CC7)CC6)nc5c3F)N3CC5CCC(N5)C3CO4)c12 (centres unmarked) [Example 21-1]")
750
>>> assay_value("C#Cc1c(F)ccc2cc(O)cc(-c3nc4c5c(nc(OCC6(CN7CCC(=NOC)C8(CC8)C7)CC6)nc5c3F)N3C[C@H]5CC[C@H](N5)[C@H]3[C@H](C)O4)c12 [Example 342]")
410
>>> assay_value("C#Cc1c(F)ccc2cc(O)cc(-c3nc4c5c(nc(OCC6(CN7CCC(=NOC)CC7)CC6)nc5c3F)N3C[C@H]5CC[C@H](N5)[C@H]3[C@H](C)O4)c12 [Example 35-1]")
210
>>> assay_value("C#Cc1c(F)ccc2cc(O)cc(-c3nc4c5c(nc(OCC6(CN7CC8CC(=C(F)F)CC8C7)CC6)nc5c3F)N3C[C@H]5CC[C@H](N5)[C@H]3[C@H](CC)O4)c12 (some centres unmarked) [Example 141]")
940
